meta.source: patent US20230203098A1

- studySystem: transferrin receptor (hTfR) (Homo sapiens)
- Sequence (P02786 whole entry): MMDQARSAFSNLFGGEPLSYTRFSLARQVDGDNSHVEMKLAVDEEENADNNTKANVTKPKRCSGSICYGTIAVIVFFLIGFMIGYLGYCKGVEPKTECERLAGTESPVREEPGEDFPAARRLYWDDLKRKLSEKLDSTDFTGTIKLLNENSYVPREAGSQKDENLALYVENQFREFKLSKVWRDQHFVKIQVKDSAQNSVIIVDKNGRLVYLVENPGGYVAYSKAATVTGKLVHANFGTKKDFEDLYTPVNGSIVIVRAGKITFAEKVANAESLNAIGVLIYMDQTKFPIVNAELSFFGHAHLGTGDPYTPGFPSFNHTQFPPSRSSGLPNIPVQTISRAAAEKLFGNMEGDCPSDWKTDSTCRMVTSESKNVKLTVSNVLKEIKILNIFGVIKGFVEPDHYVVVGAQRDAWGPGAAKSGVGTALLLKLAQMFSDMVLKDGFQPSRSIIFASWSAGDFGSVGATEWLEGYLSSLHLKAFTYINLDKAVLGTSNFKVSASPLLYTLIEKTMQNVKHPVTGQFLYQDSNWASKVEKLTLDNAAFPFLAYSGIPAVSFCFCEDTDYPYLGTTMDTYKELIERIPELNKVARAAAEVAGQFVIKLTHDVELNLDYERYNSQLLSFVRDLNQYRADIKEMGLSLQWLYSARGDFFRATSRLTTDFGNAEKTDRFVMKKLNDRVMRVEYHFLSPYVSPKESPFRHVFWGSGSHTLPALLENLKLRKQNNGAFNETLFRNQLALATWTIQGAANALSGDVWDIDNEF
- protocolNotes: Intermolecular interaction evaluation test between transferrin receptor (hTfR) and peptide by surface plasmon resonance (SPR)
- Assay type: binding
- conditionLabel: surface plasmon resonance, hTfR; read-out: KD value for hTfR by SPR (class symbol)
reportedProperty: Kd

The examples below pair each entry with its known result.
INSERT INTO measurements (smilesstr, experimentalresult) VALUES
  ('CC[C@H](C)[C@@H]1NC(=O)[C@H](Cc2ccc(OC)cc2)NC(=O)[C@H](Cc2ccc(O)cc2)NC(=O)[C@H](CC(N)=O)NC(=O)[C@H](Cc2c[nH]c3ccccc23)N(C)C(=O)[C@H](C(C)C)NC(=O)[C@H](Cc2cccc(Cl)c2)N(C)C(=O)[C@H](C(C)C)NC(=O)[C@H](C)NC(=O)CSC[C@@H](C(N)=O)NC(=O)[C@H](Cc2ccc(O)cc2)N(C)C(=O)[C@H](Cc2ccccc2)NC(=O)[C@@H](CCCNC(=N)N)NC(=O)[C@H](CCCCN)N(C)C(=O)[C@H]([C@@H](C)CC)NC1=O', '1 to 100 nM'),
  ('CC[C@H](C)[C@@H]1NC(=O)[C@H](Cc2ccc(OC)cc2)NC(=O)[C@H](Cc2ccc(O)cc2)NC(=O)[C@H](CC(N)=O)NC(=O)[C@H](Cc2c[nH]c3ccccc23)N(C)C(=O)[C@H](C(C)C)NC(=O)[C@H](Cc2cccc(Cl)c2)N(C)C(=O)[C@H](C(C)C)NC(=O)[C@H](C)NC(=O)CSC[C@H](C(N)=O)NC(=O)[C@H](Cc2ccc(O)cc2)N(C)C(=O)[C@H](Cc2ccccc2)NC(=O)[C@@H](CCCNC(=N)N)NC(=O)[C@H](CCCNC(=N)N)NC(=O)[C@H]([C@@H](C)CC)NC1=O', '1 to 100 nM'),
  ('CC[C@H](C)[C@@H]1NC(=O)[C@H](Cc2ccc(OC)cc2)NC(=O)[C@H](Cc2ccc(O)cc2)NC(=O)[C@H](CC(N)=O)NC(=O)[C@H](Cc2c[nH]c3ccccc23)N(C)C(=O)[C@H](C(C)C)NC(=O)[C@H](Cc2cccc(Cl)c2)N(C)C(=O)[C@H](C(C)C)NC(=O)[C@H](C)NC(=O)CSC[C@@H](C(N)=O)NC(=O)[C@H](Cc2ccc(O)cc2)N(C)C(=O)[C@H](Cc2ccccc2)NC(=O)[C@@H](C)NC(=O)[C@H](CCCNC(=N)N)N(C)C(=O)[C@H]([C@@H](C)CC)NC1=O', '100 to 1000 nM');

Now take the following compound into account.
Would you mind telling me what Kd value was observed for `CC[C@H](C)[C@@H]1NC(=O)[C@H](Cc2ccc(OC)cc2)NC(=O)[C@H](Cc2ccc(O)cc2)NC(=O)[C@H](CC(N)=O)NC(=O)[C@H](Cc2c[nH]c3ccccc23)N(C)C(=O)[C@H](C(C)C)NC(=O)[C@H](Cc2cccc(Cl)c2)N(C)C(=O)[C@H](C(C)C)NC(=O)[C@H](C)NC(=O)CSC[C@@H](C(N)=O)NC(=O)[C@H](Cc2ccc(O)cc2)N(C)C(=O)[C@H](Cc2cccc(OC)c2)NC(=O)[C@@H](CCCNC(=N)N)NC(=O)[C@H](CCCNC(=N)N)NC(=O)[C@H]([C@@H](C)CC)NC1=O` ?
1 to 100 nM
